Target: BRM (Homo sapiens)
Construct: made in house; host or cells: High Five insect cells
Assay: ATPase catalytic activity of BRM, ADP-Glo in vitro biochemical assay
Details: ADP-Glo ATPase assay, 30 nM BRM, 400 μM ATP
Entries whose IC50 is below 40 nM take fulfilled; entries at or above 40 nM take not fulfilled.

# example entries with known answers
molecule: CO[C@H]1CCCN(c2cccc(-c3ccc4cnc(CNC(=O)c5ccc6c(c5)S(=O)(=O)CCOC6)cc4n3)n2)C1
class label: fulfilled
//
molecule: C[C@@H]1CN(c2cccc(-c3ccc4cnc(CNC(=O)c5cc(F)c(C(F)F)c(S(C)(=O)=O)c5)cc4n3)n2)C[C@H](C)O1
class label: fulfilled
//
molecule: COc1ncc2c(c1F)N(c1ccc3cnc(CNC(=O)c4ccc5c(c4)S(=O)(=O)CCOC5)cc3n1)CCC2
class label: fulfilled

Consider O=C(NCc1cc2nc(N3CCCc4ccc(OCC5CCCO5)cc43)ccc2cn1)c1ccc2c(c1)S(=O)(=O)CCOC2 (stereo not shown) . Does its IC50 lie strictly below 40 nM?
fulfilled

Here's an entry: C[C@@H]1[C@@H](c2cccc(-c3ccc4cnc(CNC(=O)c5ccc6c(c5)S(=O)(=O)CCOC6)cc4n3)n2)C1(F)F . Is its IC50 below 40 nM?
not fulfilled

###

Target: BRG-1 (Homo sapiens, UniProt P51532)
Construct: made in house; host or cells: High Five insect cells
Sequence (P51532 whole entry): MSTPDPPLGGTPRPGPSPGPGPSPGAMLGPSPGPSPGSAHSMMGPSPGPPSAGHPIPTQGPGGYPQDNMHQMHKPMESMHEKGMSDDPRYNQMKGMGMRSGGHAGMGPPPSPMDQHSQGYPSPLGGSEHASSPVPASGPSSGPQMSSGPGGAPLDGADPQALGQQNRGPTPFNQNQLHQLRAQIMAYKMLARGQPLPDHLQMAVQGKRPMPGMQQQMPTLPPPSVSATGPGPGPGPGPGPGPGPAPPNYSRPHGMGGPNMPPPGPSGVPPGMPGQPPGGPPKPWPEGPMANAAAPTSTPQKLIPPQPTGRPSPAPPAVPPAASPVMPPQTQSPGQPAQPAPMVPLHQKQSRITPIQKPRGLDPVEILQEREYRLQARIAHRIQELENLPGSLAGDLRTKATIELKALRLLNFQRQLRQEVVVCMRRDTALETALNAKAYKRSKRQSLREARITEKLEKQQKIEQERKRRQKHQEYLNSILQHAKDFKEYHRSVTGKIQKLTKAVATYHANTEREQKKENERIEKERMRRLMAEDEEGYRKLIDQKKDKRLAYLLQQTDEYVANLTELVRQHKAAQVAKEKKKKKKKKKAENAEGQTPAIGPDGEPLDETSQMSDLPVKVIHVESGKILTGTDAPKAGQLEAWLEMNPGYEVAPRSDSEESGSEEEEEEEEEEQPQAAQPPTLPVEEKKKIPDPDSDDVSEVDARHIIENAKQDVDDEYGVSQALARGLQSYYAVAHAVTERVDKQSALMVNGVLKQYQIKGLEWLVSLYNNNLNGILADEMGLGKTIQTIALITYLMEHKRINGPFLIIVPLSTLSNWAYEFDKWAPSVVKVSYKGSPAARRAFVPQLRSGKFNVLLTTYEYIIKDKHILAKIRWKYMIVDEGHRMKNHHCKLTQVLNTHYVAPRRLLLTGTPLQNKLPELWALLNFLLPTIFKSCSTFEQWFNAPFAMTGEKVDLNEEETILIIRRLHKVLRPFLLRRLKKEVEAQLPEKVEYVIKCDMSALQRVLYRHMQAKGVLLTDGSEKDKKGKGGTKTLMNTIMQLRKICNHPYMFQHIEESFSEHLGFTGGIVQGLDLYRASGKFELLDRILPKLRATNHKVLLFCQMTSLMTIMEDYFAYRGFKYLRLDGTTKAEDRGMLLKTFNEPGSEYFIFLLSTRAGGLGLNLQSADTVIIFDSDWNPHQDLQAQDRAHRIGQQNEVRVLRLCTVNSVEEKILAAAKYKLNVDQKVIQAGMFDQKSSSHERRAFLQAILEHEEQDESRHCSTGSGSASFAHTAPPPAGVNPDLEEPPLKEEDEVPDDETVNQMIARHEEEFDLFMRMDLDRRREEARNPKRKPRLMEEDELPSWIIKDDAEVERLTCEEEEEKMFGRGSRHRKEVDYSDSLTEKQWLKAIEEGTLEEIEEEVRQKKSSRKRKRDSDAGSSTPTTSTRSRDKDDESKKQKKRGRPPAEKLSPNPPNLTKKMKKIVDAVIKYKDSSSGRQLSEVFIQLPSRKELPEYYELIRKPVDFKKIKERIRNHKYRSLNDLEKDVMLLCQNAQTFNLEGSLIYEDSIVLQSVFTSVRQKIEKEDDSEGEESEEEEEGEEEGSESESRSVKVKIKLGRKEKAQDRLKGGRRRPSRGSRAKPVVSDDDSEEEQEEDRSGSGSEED
Test: ATPase catalytic activity of BRG-1, ADP-Glo in vitro biochemical assay
Conditions: ATPase catalytic activity, ADP-Glo; 30 nM BRG-1, 400 μM ATP; read-out: BRG1 IC50
# if measured IC50 < 200 nM: Condition met  # else: Condition not met

Field: example entries. Status: answers known.
compound: O=C(NCc1cc2nc(N3CCCc4c(Cl)ccnc43)ccc2cn1)c1ccc2c(c1)S(=O)(=O)CCOC2 [Compound 478]
class label: Condition not met

compound: O=C(NCc1cc2nc(-c3cccc(OCC4CC(F)(F)C4)n3)ccc2cn1)c1ccc2c(c1)S(=O)(=O)CCOC2 [Compound 390]
class label: Condition not met

compound: O=C(NCc1cc2nc(-c3cccc(C4CC4)n3)cnc2cn1)c1cc(F)c2c(c1)S(=O)(=O)CCOC2 [Compound 424]
class label: Condition not met

Decide: IC50 of CCOc1nc(-c2ccc3cnc(CNC(=O)c4ccc5c(c4)S(=O)(=O)CCOC5)cc3n2)ccc1C [Compound 501] strictly below 200 nM?
Condition met

Lab note: confirm whether the reported IC50 for this compound is below 200 nM, equality not counting. compound: CN(CCOC1CC1)c1cccc(-c2ccc3cnc(CNC(=O)c4ccc5c(c4)S(=O)(=O)CCOC5)cc3n2)n1 [Compound 361]
Condition met

Regarding O=C(NCc1cc2nc(N3CCCc4ccc([C@H]5CC5(F)F)nc43)ccc2cn1)c1ccc2c(c1)S(=O)(=O)CCOC2 [Compound 690] , kindly confirm whether its IC50 is beneath 200 nM.
Condition not met

###

Target: BRM (Homo sapiens, UniProt P51531)
Construct: made in house; host or cells: High Five insect cells
Sequence (P51531 whole entry): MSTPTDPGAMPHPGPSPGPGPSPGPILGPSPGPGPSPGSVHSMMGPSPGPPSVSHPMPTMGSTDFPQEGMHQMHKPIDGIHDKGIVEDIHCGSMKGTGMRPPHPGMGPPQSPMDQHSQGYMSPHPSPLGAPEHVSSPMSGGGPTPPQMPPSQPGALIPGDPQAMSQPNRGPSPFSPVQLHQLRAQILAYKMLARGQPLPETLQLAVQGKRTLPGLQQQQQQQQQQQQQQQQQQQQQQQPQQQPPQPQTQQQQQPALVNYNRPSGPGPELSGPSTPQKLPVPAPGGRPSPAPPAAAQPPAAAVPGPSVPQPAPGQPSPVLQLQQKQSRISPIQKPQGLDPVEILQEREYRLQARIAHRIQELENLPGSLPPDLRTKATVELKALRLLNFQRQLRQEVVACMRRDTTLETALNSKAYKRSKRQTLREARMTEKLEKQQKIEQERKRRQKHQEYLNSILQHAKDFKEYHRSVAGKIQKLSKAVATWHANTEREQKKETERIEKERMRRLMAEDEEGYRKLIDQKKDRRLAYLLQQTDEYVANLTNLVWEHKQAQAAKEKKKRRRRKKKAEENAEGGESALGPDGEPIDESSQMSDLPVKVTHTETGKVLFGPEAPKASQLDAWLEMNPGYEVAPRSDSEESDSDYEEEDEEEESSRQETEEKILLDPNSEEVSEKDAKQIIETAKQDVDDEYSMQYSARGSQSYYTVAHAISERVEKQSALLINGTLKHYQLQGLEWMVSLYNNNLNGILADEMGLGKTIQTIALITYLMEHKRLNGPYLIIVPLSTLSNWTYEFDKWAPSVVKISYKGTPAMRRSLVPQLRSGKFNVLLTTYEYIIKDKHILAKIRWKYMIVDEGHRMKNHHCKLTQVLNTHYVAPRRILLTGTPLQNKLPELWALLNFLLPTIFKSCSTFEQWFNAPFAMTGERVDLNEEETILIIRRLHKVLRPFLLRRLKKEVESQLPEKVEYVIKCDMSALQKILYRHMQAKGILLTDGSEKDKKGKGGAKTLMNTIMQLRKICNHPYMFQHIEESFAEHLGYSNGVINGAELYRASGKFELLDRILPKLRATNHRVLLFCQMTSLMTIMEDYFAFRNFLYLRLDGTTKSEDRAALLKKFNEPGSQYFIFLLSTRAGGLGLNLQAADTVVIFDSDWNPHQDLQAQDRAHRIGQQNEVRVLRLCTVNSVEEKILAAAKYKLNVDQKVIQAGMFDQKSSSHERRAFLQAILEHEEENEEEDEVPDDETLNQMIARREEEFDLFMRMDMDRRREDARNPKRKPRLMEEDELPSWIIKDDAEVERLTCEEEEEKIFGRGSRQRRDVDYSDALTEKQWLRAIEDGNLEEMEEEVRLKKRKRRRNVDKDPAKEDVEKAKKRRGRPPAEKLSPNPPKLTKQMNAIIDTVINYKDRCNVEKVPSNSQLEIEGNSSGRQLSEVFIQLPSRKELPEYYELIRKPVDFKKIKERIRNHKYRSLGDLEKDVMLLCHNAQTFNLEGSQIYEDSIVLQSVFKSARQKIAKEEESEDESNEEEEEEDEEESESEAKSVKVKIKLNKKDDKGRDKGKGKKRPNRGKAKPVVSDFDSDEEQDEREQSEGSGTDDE
Assay: ATPase catalytic activity of BRM, ADP-Glo in vitro biochemical assay
Settings: ATPase catalytic activity, ADP-Glo; 30 nM BRM, 400 μM ATP
We'd kindly ask you to apply these IC50 classes: low bracket: < 20 nM; middle bracket: ≥ 20 nM and < 200 nM; high bracket: ≥ 200 nM

compound: CC1CCc2ccc(-c3ccc4cnc(CNC(=O)c5ccc6c(c5)S(=O)(=O)CCOC6)cc4n3)nc2N1C (centres unmarked)
class label: middle bracket
//
compound: C[C@@H]1CN(c2cccc(-c3ccc4cnc(CNC(=O)c5cc(F)c6c(c5)S(=O)(=O)[C@H](C)CN6C)cc4n3)n2)C[C@H](C)O1
class label: middle bracket
//
compound: C[C@@H]1CN(c2cccc(-c3ccc4cnc(CNC(=O)c5cc(F)c6c(c5)S(=O)(=O)CC[C@H](C)O6)cc4n3)n2)C[C@H](C)O1
class label: middle bracket
//
compound: CO[C@H]1C[C@@H]1N(C)c1cccc(-c2ccc3cnc(CNC(=O)c4ccc5c(c4)S(=O)(=O)[C@@H](C)COC5)cc3n2)n1
class label: low bracket

GET /class?item= O=C(NCc1cc2nc(-c3ccc4c(n3)C(F)(F)CC4)ccc2cn1)c1ccc2c(c1)S(=O)(=O)CCOC2
middle bracket

Dear colleague, I would appreciate it if you could identify the bin for C[C@@H]1CN(c2cccc(-c3ccc4cnc(CNC(=O)c5ccc6c(c5)S(=O)(=O)CCOCC6)cc4n3)n2)C[C@H](C)O1 and reply at your convenience.
low bracket

Into which category would you place COc1cnc2c(c1)CCCN2c1ccc2cnc(CNC(=O)c3ccc4c(c3)S(=O)(=O)CCOC4)cc2n1 ?
low bracket

Textbook exercise: identify the category of the compound given here, O=C(NCc1cc2nc(-c3cccc4c3OCC[C@@H]4OC3COC3)ccc2cn1)c1ccc2c(c1)S(=O)(=O)CCOC2 , according to its measured value.
middle bracket

Which class does C[C@@H]1CN(c2cccc(-c3ccc4cnc(CNC(=O)c5ccc6c(c5)S(=O)(=O)[C@H](C)CN6C)cc4n3)n2)C[C@H](C)O1 fall in?
high bracket

Class (by measured IC50) for O=C(NCc1cc2nc(-c3cccc(OCC4CC(F)(F)C4)n3)ccc2cn1)c1ccc2c(c1)S(=O)(=O)CCOC2
middle bracket

src = patent US20230416248A1
